- TARGET ENTITY: human M2 receptor (Homo sapiens, UniProt P08172)
- Sequence (P08172 1-466): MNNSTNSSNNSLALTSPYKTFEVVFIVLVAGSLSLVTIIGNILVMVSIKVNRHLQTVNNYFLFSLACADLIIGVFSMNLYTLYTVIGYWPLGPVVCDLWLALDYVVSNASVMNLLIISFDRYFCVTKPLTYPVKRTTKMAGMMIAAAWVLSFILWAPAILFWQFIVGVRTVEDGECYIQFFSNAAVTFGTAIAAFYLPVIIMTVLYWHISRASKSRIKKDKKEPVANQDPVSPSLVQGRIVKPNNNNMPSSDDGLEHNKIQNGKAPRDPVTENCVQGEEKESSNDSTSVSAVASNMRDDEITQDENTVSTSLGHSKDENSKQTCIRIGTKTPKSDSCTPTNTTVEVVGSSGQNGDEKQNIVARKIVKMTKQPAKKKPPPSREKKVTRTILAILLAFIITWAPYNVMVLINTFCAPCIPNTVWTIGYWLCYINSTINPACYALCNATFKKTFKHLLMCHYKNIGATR
- APPLIED CONDITIONS: Receptor activity EC50, M2-GIRK1/4 activation test, acetylcholine at EC20; allosteric potency; in some cases mean values from two or more determinations
pEC50: −log10 of the molar value.
Hi, to clarify the labels: rule met covers pEC50 from 7 upward, rule not met covers anything below 7.

Quick check: does CC[C@H](NC(=O)c1cn(-c2c(F)cc(F)cc2F)c2nc(N3CCN/C3=N\C(=O)OC)ccc2c1=O)C(F)(F)F [Example 377] have pEC50 greater than or equal to 7?
rule met

hey, is pEC50 for this one >= 7? CN(C)c1ccc2c(=O)c(C(=O)Nc3c(Cl)cccc3Cl)cn(-c3ccc(F)cc3F)c2n1 [Example 55]
rule met

Reported pEC50 reaches at least 7 for CC[C@@H](NC(=O)c1cn(-c2ccc(F)cc2F)c2nc(N3CC4CC4(O)C3)ccc2c1=O)C(F)(F)F (single isomer, unassigned) [Example 314] ?
rule met

Dear colleague, could you confirm whether O=C(NC12CC3CC(CC(C3)C1)C2)c1cn(-c2ccc(F)cc2F)c2nc(NCC(F)(F)F)ccc2c1=O [Example 90] has pEC50 at or above 7?
rule not met
